Biological target: UniProtKB P97014
Sequence (P97014 1-379): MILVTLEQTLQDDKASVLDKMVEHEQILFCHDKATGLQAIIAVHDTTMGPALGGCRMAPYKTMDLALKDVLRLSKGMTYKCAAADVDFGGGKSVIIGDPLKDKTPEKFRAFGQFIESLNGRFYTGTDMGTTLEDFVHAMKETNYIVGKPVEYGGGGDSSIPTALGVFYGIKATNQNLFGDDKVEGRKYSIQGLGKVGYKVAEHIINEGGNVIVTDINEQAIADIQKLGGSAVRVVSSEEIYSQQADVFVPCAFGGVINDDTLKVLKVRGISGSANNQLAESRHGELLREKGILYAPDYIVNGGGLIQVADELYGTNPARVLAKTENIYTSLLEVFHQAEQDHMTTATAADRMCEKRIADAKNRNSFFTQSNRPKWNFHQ
Experiment: Substrate and coenzyme specificity, oxidative deamination (Sporosarcina enzyme)
Assay type: biochemical
Details: oxidative deamination; substrate concentration 10 mM; L-phenylalanine = 100; read-out: Relative activity (%)
Label True when activity at 10000 µM is at or above 7%; otherwise label False.

The following compounds have reported results that may help.
Qu. Decide: is the reported value of activity at 10000 µM for `CC(C)C[C@H](N)C(=O)O` equal to or greater than 7%?
Ans. False

Qu. Entry `CC[C@H](C)[C@H](N)C(=O)O` : is its activity at 10000 µM no less than 7%?
Ans. False

Qu. Given the entry `CC(C)[C@H](N)C(=O)O` , answer whether its activity at 10000 µM meets or surpasses 7%.
Ans. False

Qu. In plain terms: is recorded activity at 10000 µM at least 7% for `N[C@@H](Cc1ccccc1)C(=O)O` ?
Ans. True

Qu. Could you tell me if the measured activity at 10000 µM of `CSCC[C@H](N)C(=O)O` reaches 7% or more?
Ans. False

---
Qu. Given the entry `CCCC[C@H](N)C(=O)O` , answer whether its activity at 10000 µM meets or surpasses 7%.
Ans. True

Qu. Kindly determine if activity at 10000 µM recorded for `CCC[C@H](N)C(=O)O` is above or exactly 7%.
Ans. False
